- target-under-test: Arginase-2, mitochondrial (Homo sapiens)
- Sequence (whole entry): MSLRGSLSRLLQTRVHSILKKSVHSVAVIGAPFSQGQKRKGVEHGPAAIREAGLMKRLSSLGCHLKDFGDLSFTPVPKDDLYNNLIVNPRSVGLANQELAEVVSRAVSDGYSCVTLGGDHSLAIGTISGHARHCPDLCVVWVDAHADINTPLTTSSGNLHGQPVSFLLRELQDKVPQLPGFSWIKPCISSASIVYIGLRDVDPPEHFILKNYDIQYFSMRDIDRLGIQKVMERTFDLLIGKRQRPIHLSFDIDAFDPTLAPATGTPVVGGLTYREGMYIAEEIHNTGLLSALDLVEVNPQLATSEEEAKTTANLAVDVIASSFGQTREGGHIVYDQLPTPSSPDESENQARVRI
- test-description: in vitro enzyme assay to detect the production of urea directly proportional to the activity of Arginase II; note: in the data most compounds retested in dose-response had high values
- Type: functional
- Design: scale not given: direction of the effect not stated beside the values
- settings: 33.3 µM
Exercise: for every item that follows, state its recorded Percent Effect.
The answer consists of two parts: a number and, after it, its unit.

Documented Percent Effect of CCN1CCC(CNC(=O)C2(c3cccc(C)c3)CC2)C1 (stereo unspecified) : 5.81%

According to the records, this compound Cc1ncsc1C(=O)NCCn1nc2ccccn2c1=O displays Percent Effect of 2.03%

Item: COc1cccc2c1OCC(NC(=O)NCc1cccs1)C2 (stereo unspecified) | Percent Effect: -2.37%

Memo: CC(C)(C)C(=O)NCCn1ccc(-c2ccncc2)n1 , reported Percent Effect: 11.4%

The compound listed as Cc1noc(C)c1CN1CC2(CCN(C(=O)c3cscn3)CC2)CC1=O shows Percent Effect equal to -5.52%

Record summary for CCOc1cc(C)nc(N2CCN(C(=O)c3ccc[nH]3)CC2)n1 : reported Percent Effect = 2.77%

---

- Tested on: Trypanosoma cruzi
- test-description: Trypanosoma cruzi phosphomannomutase and mannose-1-phosphate guanylyltransferase assay
- Assay type: functional
- Set-up: scale not given: direction of the effect not stated beside the values
- settings: 10 µM
readout: Percent Effect
# output: number + unit

Value of measured Percent Effect for the entry O=C(NCCC(=O)N1CCCC1)c1nn(-c2ccccc2F)cc1O : 8.82%

Recorded Percent Effect (compound Cc1cc2c(=O)n3c(nc2s1)CCN(C(=O)c1ccncc1)CC3 ): -4.74%

The measured Percent Effect associated with FC(F)(F)COCCN1CCN(c2ccc3nncn3n2)CC1 reads 4.87%

Looking up CC(Cn1ccnc1)NC(=O)C1(c2ccc3c(c2)OCCO3)CCCC1 (stereo not drawn) , I found its Percent Effect recorded as 1.79%

// field: Percent Effect; key: CNC1CCCN(Cc2noc(C3CC3)n2)C1 (stereo not drawn) ; value = -0.193%

// Percent Effect lookup, compound = COc1ccc(C(=O)NS(=O)(=O)c2ccc(C#N)cc2C(F)(F)F)cc1 , result: 0.472%

Record summary for CCc1c(C(=O)N2CCCN(C(C)=O)CC2)cnn1C(C)(C)C : reported Percent Effect = 3.27%

Briefly, Percent Effect measured for Cc1ccc2c(c1)C1(CCNCC1)CN2C(=O)CN(C)C : -7.14%

So for CCN(C(=O)COC)C(c1cccnc1)c1ccc2c(c1)CCO2 (stereo not drawn) , the logged Percent Effect turned out to be -8.13%

Reported Percent Effect for N#Cc1ccc(C(=O)N2CC[C@H]3[C@@H]2CCC(=O)N3c2ccccc2)cc1 was -7.68%

The compound listed as Cn1cc(N2CCC(NC(=O)c3c(F)cccc3F)C2=O)cn1 (stereo not drawn) has a reported Percent Effect of -1.66%

// Percent Effect value for O=C(NCc1cc[nH]n1)NCC(c1ccccc1Cl)N1CCCC1 (stereo not drawn) : -2.25%

For record O=S(=O)(c1ccccc1)N1CCCN(CCCn2ccnc2)CC1 the listed Percent Effect is 5.38%

Just so you know, measured Percent Effect for Cc1ccc(-c2nc(CN3CCC(C(=O)N(C)C)CC3)cs2)o1 came out at -0.103%

Please fill in: Percent Effect reported for Cc1noc(CCCC(=O)NC(C)c2ccccn2)n1 (stereo not drawn) = 3.01%

Sample CCS(=O)(=O)N1CCC(c2nnc(CN3CCCC3)n2C2CC2)CC1 ; Percent Effect observed: 2.82%

Reported Percent Effect of CC(NC(=O)NCC1(O)CCC1)c1ccc(OCC2CC2)c(F)c1 (stereo not drawn) : 1.85%

Percent Effect reported for this compound CCn1cc(NC(=O)C2CCN(CC(=O)N3CCOCC3)CC2)cn1 : -4.01%

Reported Percent Effect ( CCOCc1ncn2c1CN(C(=O)Nc1cccc(C)c1)CC2 ) = -2.54%

Lab book: Percent Effect of CN(Cc1cn2c(n1)CN(CC1CC1)CC2)Cc1ccco1 noted as -3.35%

Quick note, Percent Effect for CCOC[C@@H]1CCC[C@@]12CN(Cc1nccs1)CCO2 landed at 0.787%

Short answer for CC(c1ccco1)N(C)Cc1nc2c(cnn2C)c(=O)[nH]1 (stereo not drawn) : Percent Effect was 3.44%

So, CCCNC(=O)Cn1nc(C(C)C)c2cnn(C(C)(C)C)c2c1=O ? Its Percent Effect was -0.392%

// Percent Effect value for CC(NC(=O)NCCCn1ccnc1)c1ccc2c(c1)CCC(=O)N2 (stereo not drawn) : 8.4%

compound Cc1nc(-c2ccsc2)ccc1C(=O)NCCC(=O)N1CCCC1 , Percent Effect observed: 6.2%

Data point: O=C(NCC1CC1)C1CN(C(=O)c2cccnc2)CC12CCOCC2 (stereo not drawn) ; Percent Effect = -0.296%

# Percent Effect (compound: Cc1nn(C)c(Cl)c1CNCc1cccnc1N1CCOCC1 ) is 0.682%

Quick note, Percent Effect for COCc1nc2cc(NCc3ccc(C)o3)ccc2o1 landed at 6.05%

Percent Effect in this record for CN(C)CC(=O)N1CCOCC2(C1)CN(c1ccccc1)C(=O)CO2 (stereo not drawn) : -4.05%

So for CCc1noc(C(C)N2CCN(c3ccc(C#N)cn3)CC2)n1 (stereo not drawn) , the logged Percent Effect turned out to be -4.58%

Just so you know, measured Percent Effect for O=C(O)c1cc2c(nc1O)CC(c1cccc(Cl)c1)CC2=O (stereo not drawn) came out at -5.7%

Notebook: CSc1ccc(NC(=O)Nc2ccc3c(c2)N(S(C)(=O)=O)CC3)cc1 , Percent Effect read as 3.06%

Data point: CCC(=O)Nc1ccc(C(C)NC(=O)COCCOC)cc1 (stereo not drawn) ; Percent Effect = 1.46%

The compound listed as CC(C)N1CCOCC2(CN(Cc3ccco3)CCO2)C1 (stereo not drawn) has a reported Percent Effect of -2.58%

// Percent Effect value for CCc1noc(C)c1C(=O)N1CCCC1Cn1cc(C)cn1 (stereo not drawn) : -10.4%

Short answer for Cc1cnn(C2CN(CC(=O)NCc3ccccn3)C2)c1 : Percent Effect was 7.56%

Note to self: Percent Effect recorded for O=C(c1ccco1)N1CC[C@H]2[C@H]1CCN2CC1CCOCC1 was -3.74%

Entry COc1ccc(C(O)CNC(=O)Nc2cc(C)nn2C)cc1 (stereo not drawn) — recorded Percent Effect = -9.59%

Percent Effect in this record for CC(NC(=O)NCCNc1ncccn1)c1cccs1 (stereo not drawn) : 7.12%

Reported Percent Effect for Cc1cc(C)n(C2CCCN(C(=O)c3ccc(NC4CC4)nc3)C2)n1 (stereo not drawn) was -4.6%

Field Percent Effect (entry O=C(CN1CCC(N2CCNC2=O)CC1)NCC(F)(F)F ) reads -2.36%

Recorded result, O=c1c2sccc2nc2n1CCN(Cc1cccs1)CC2 , Percent Effect: -0.395%

CC(CNC(=O)Nc1cn[nH]c1)N1CCc2ccccc2C1 (stereo not drawn) yielded Percent Effect of -1.67%

Looking up CN(C)C(=O)Cc1nc(CN2CCn3c(nnc3C3CC3)C2)cs1 , I found its Percent Effect recorded as 2.14%

According to the records, this compound COCc1nc(C(=O)N2CCCC2c2c(C)nn(C)c2C)cs1 (stereo not drawn) displays Percent Effect of -1.33%

Measured Percent Effect of C[C@H](O)CNC(=O)c1cnc(-c2ccccc2)nc1O : 4.83%

In plain terms, Cc1nn(-c2ccccc2)nc1C(=O)N1CCCC1c1cnn(C)c1 (stereo not drawn) has a documented Percent Effect of -2.32%

Field Percent Effect (entry Cc1cc(C)c(CNC(=O)NCC(c2ccccc2)N(C)C)c(=O)[nH]1 (stereo not drawn) ) reads 2.52%

---

Give measured Percent Effect for each item. Keep answers brief.
- System: Trypanosoma cruzi
- test-description: Trypanosoma cruzi phosphomannomutase and mannose-1-phosphate guanylyltransferase assay
- Type: functional
- Parameters: scale not given: direction of the effect not stated beside the values
- settings: 10 µM
Give just the numeric value; % need not be written.

Note to self: Percent Effect recorded for O=C(COc1cccc(Br)c1)N1CCN(c2nccs2)CC1 was 4.58

Sure, the documented Percent Effect for CC(C)NC(=O)c1n[nH]c(-n2cnnc2)n1 is 1.77

Kindly note the recorded Percent Effect for O=C(c1ccsc1)N1C[C@@H](CN2CCCC2)[C@@H](CO)C1 , which is -5.36

Memo: CCOc1ccc(NC(=O)NCc2csc(NC)n2)cc1C , reported Percent Effect: 1.95

Item: c1cnc(N2CCC3(COCc4cnc(-c5cccnc5)nc43)C2)nc1 (stereo not drawn) | Percent Effect: -1.86

Measured Percent Effect, Cc1cc(CN2CCC(CNC(=O)c3nccc4ccccc34)C2)[nH]n1 (stereo not drawn) : 4.2

Just so you know, measured Percent Effect for Cc1cc(CN2CCN(C(=O)C(C)C)[C@@H]3CS(=O)(=O)C[C@@H]32)ccc1F came out at -0.486

Value of measured Percent Effect for the entry Cc1nn(CC(=O)N2CCN(c3ccncc3)CC2)c(C)c1Cl : 1.66

Percent Effect reported for this compound CN(CCOc1cccc(CNC(=O)C2CC2)c1)C1CCOCC1 : 4.44

Percent Effect measured on O=C(C1CCC1)N1CCN(Cc2ccsc2)[C@H]2CS(=O)(=O)C[C@H]21 = -5.41

// Percent Effect value for CC(C)c1ccc(C(C)NC(=O)N2CCC(n3cncn3)CC2)cc1 (stereo not drawn) : -3.87

// field: Percent Effect; key: O=C1CC2(CCN(S(=O)(=O)C3CC3)C2)CN1c1cncnc1 (stereo not drawn) ; value = 1.54

Percent Effect in this record for O=C1N(Cc2cccc(F)c2F)CCCC1(O)CNC1CCCC1 (stereo not drawn) : 5.55

So for CCc1ncnc2c1CCN(C(=O)Cc1ccccn1)CC2 , the logged Percent Effect turned out to be -0.786

The compound CCc1nnc2n1CCN(CC(=O)Nc1sccc1C#N)C2 showed Percent Effect equal to -8.68

Recorded result, COc1cccc2cc(CNC(C)(C)C(=O)N3CCC(O)CC3)oc12 , Percent Effect: 7.08

Per the record, Cc1nn(C)c(N2CCOCC2)c1CNC(C)c1cccnc1 (stereo not drawn) has Percent Effect of 2.62

Lab book: Percent Effect of CC1=Nc2c(c(=O)[nH]n2C2CCCC2)C(c2cccc(O)c2)S1 (stereo not drawn) noted as 1.38

Consider CC(C)Cc1noc(CN2CCN(C(=O)c3cccc(F)c3)CC2)n1 . Its measured Percent Effect is 1.39

The recorded Percent Effect for Cc1cccc(NC(=O)CNC(=O)Cn2ncc(Cl)c(Cl)c2=O)c1C is -8.4

Record c1ccc(-c2cnc(CN3CCCC3Cn3cncn3)o2)cc1 (stereo not drawn) . Reported Percent Effect: -2.93

// field: Percent Effect; key: O=c1[nH]c2nc(N3CCSCC3)ncc2c(=O)n1-c1cccc(F)c1 ; value = -1.46

Form field Percent Effect, entry COCCC(=O)N1CCC2(CN(Cc3ccc(OC)c(F)c3)C2)C1 : 5.16
